# target_of_assay: T1, HLA-A2/E6 (29-38) tetramer (human; HPV 16)
# T1 construct: also called E6(29-38) peptide-MHC tetramer; E6(29-38)-loaded tetramer
# assay_explanation: tetramer flow cytometry; transfected Jurkat-derived cells, CD8+ population
readout_kind: % cells in E6 tet+/CD8+ quadrant (%)
State just the number; it will be interpreted in %.

Given TCR 17 (codon optimized, cysteine modified version) (TCR, V domains shown) V domain 1: AQKITQTQPGMFVQEKEAVTLDCTYDTSDPSYGLFWYKQPSSGEMIFLIYQGSYDQQNATEGRYSLNFQKARKSANLVISASQLGDSAMYFCAMREGRGDKIIFGKGTRLHILP V domain 2: DVKVTQSSRYLVKRTGEKVFLECVQDMDHENMFWYRQDPGLGLRLIYFSYDVKMKEKGDIPEGYSVSREKKERFSLILESASTNQTSMYLCASSLWGRSNQPQHFGDGTRLSILE , state its recorded % cells in E6 tet+/CD8+ quadrant.
34.7

Value lookup for % cells in E6 tet+/CD8+ quadrant; key = TCR 22 (codon optimized, cysteine modified version) (TCR, V domains shown) V domain 1: GQNIDQPTEMTATEGAIVQINCTYQTSGFNGLFWYQQHAGEAPTFLSYNVLDGLEEKGRFSSFLSRSKGYSYLLLKELQMKDSASYLCAVRARMDSNYQLIWGAGTKLIIKP V domain 2: DAGVTQSPTHLIKTRGQHVTLRCSPISGHKSVSWYQQVLGQGPQFIFQYYEKEERGRGNFPDRFSARQFPNYSSELNVNALLLGDSALYLCASSRTENYGYTFGSGTRLTVVE
51.2

Consider the binder TCR 24 (codon optimized, cysteine modified version) (TCR, V domains shown) V domain 1: AQKITQTQPGMFVQEKEAVTLDCTYDTSDQSYGLFWYKQPSSGEMIFLIYQGSYDEQNATEGRYSLNFQKARKSANLVISASQLGDSAMYFCAMREGRGDSWGKLQFGAGTQVVVTP V domain 2: DVKVTQSSRYLVKRTGEKVFLECVQDMDHENMFWYRQDPGLGLRLIYFSYDVKMKEKGDIPEGYSVSREKKERFSLILESASTNQTSMYLCASSPFGRGSYEQYFGPGTRLTVTE and give its measured % cells in E6 tet+/CD8+ quadrant.
29.1

Can you share its % cells in E6 tet+/CD8+ quadrant? I mean this binder: TCR 27 (codon optimized, cysteine modified version) (TCR, V domains shown) V domain 1: DAKTTQPNSMESNEEEPVHLPCNHSTISGTDYIHWYRQLPSQGPEYVIHGLTSNVNNRMASLAIAEDRKSSTLILHRATLRDAAVYYCILRVPPQSGGYQKVTFGTGTKLQVIP V domain 2: NAGVTQTPKFQVLKTGQSMTLQCAQDMNHNSMYWYRQDPGMGLRLIYYSASEGTTDKGEVPNGYNVSRLNKREFSLRLESAAPSQTSVYFCASSEFGSLNEKLFFGSGTQLSVLE
24.5

Looking for the measured % cells in E6 tet+/CD8+ quadrant of TCR 21 (codon optimized, cysteine modified version) (TCR, V domains shown) V domain 1: AQKITQTQPGMFVQEKEAVTLDCTYDTSDQSYGLFWYKQPSSGEMIFLIYQGSYDEQNATEGRYSLNFQKARKSANLVISASQLGDSAMYFCAMREGRVTGGGNKLTFGTGTQLKVEL V domain 2: NAGVTQTPKFQVLKTGQSMTLQCAQDMNHNSMYWYRQDPGMGLRLIYYSASEGTTDKGEVPNGYNVSRLNKREFSLRLESAAPSQTSVYFCASRPWGNQNTEAFFGQGTRLTVVE , can you help?
51.6

Consider the binder modified version of TCR 13 (codon optimized, cysteine modified) (TCR, V domains shown) V domain 1: AQSVTQLDSHVSVSEGTPVLLRCNYSSSYSPSLFWYVQHPNKGLQLLLKYTSAATLVKGINGFEAEFKKSETSFHLTKPSAHMSDAAEYFCVVRGGKLIFGQGTELSVKP V domain 2: GAGVSQSPRYKVAKRGQDVALRCDPISGHVSLFWYQQALGQGPEFLTYFQNEAQLDKSGLPSDRFFAERPEGSVSTLKIQRTQQEDSAVYLCASSPTGTERELFFGEGSRLTVLE and give its measured % cells in E6 tet+/CD8+ quadrant.
38.6

What value of % cells in E6 tet+/CD8+ quadrant has been reported for the following binder? TCR 18 (codon optimized, cysteine modified version) (TCR, V domains shown) V domain 1: KQEVTQIPAALSVPEGENLVLNCSFTDSAIYNLQWFRQDPGKGLTSLLLIQSSQREQTSGRLNASLDKSSGRSTLYIAASQPGDSATYLCAEGNAGGTSYGKLTFGQGTILTVHP V domain 2: DVKVTQSSRYLVKRTGEKVFLECVQDMDHENMFWYRQDPGLGLRLIYFSYDVKMKEKGDIPEGYSVSREKKERFSLILESASTNQTSMYLCASSFWGRSNSPLHFGNGTRLTVTE
50.4

Would you mind telling me what % cells in E6 tet+/CD8+ quadrant value was observed for TCR 23 (codon optimized, cysteine modified version) (TCR, V domains shown) V domain 1: AQKITQTQPGMFVQEKEAVTLDCTYDTSDQSYGLFWYKQPSSGEMIFLIYQGSYDEQNATEGRYSLNFQKARKSANLVISASQLGDSAMYFCAMSPPGGSARQLTFGSGTQLTVLP V domain 2: DVKVTQSSRYLVKRTGEKVFLECVQDMDHENMFWYRQDPGLGLRLIYFSYDVKMKEKGDIPEGYSVSREKKERFSLILESASTNQTSMYLCASSPWGQSNQPQHFGDGTRLSILE ?
43.6
